Recorded values, source patent US20210403538A1.

binders and their reported Kd
# Tested on: EBOV GP [change] (Zaire ebolavirus (EBOV), strain Makona)
# Protocol description: BLI
Supply the numeric figure in pM, leaving out any unit text.

# Binder, Kd, pM
data = [
    ("rEBOV-542 (antibody, V domains shown) VH: EVQLVESGGGLVQPGGSLRLSCAASGFTVSNNYMSWVRQAPGKGLEWVSLIYTSVTTYYADSVKGRFTISRDNSKNTLYLQMNSLRAEDTAVYYCARELGNWSYGVSYWGRGTLVTVSS VL: SYELTQPPSVSVSPGQTARITCSGDALPKQYAYWYQQKPGQAPVLVIYKDSERPSGIPERFSGSSSGTTVTLTISGVQAEDGADYYCQSADGSGTYPVVFGGGTKLTVL", 260),
    ("rEBOV-520 LALA (antibody, V domains shown) VH: QVQLQESGPGLGKPSETLSLSCTVSGASIRGYFWNWIRQPPGKGLEWIGYIHSTGSTNYNPSLKSRVTISVDTSKNQVSLNVNSVTAADTAVYFCARGAWNVATVYYYYGMDVWGQGTLVTVSS VL: EIVLTQSPGTLSLSPGERATLSCRASQSVSSSYFAWYQQKPGQAPRLLISGTSTRAPGIPDRFSGSGSGTDFTLTISRLEPEDFAVYFCQQYGNSLYTFGQGTKLEIK", 2120),
    ("EBOV-515 (antibody, V domains shown) VH: QVQLQESGPGLVKPSQTLSLTCTVSGGSINSAGYYWTWIRQHPGKGLEWIGYIDYTGRTYYNPSLESRVIISIDTSKNHFSLRLTSVSAADTAVYYCARESSWVSELGRDNWGQGTLVTVSS VL: EIVMTQSPATLPVSPGEGATLSCRASQSVFTNLAWYQQKPGQAPRLLIYDASTRATGIPARFSGSGSGTEFTLTISSLQSEDFAVYYCQQYNNWPRTYGQGTRVEVK", 530),
]

Reported Kd for rEBOV-548 (antibody, V domains shown) VH: QVQVEESGGGVVQPGGSLRLSCAASGFMFSNYGMHWVRQAPGKGLEWMAFIRYDDSKKFYADSVKGRFTISRDNSKNTLYLQMNSLRAEDTALYYCAKELLQVYTSAWGEGHSYYYALDVWGLGTAVTVSS VL: DIQMTQSPSSVSASVGDRVTITCRASQDISNWLAWYQQKPGKAPELLIYTASILQSGVSSRFSGSGSGTDFTLTISSLQPEDSATYYCQQGKSFPYTFGQGTKLEIK was 41
